Tested on: Fibroblast
EXPERIMENTAL_DETAILS: Incucyte cell viability with human fibroblast; also: unitless GR value; below 1 slowed growth and below 0 cell loss
Type: toxicity, cell-based
CONDITION_DETAILS: 12 h, 10 µM, compound concentration 10 uM, replicate number 1
Listing: Growth Rate of selected compounds
Give the value as a plain number.

# COMPOUND, Growth Rate
data = [
    ("Cc1nc2c([nH]1)c(=O)n(C)c(=O)n2Cc1ccco1", -1),
    ("CCS(=O)(=O)c1ccc(OC)c(Nc2ncc(-c3cccc(F)c3)o2)c1 [GW621970X]", 0.4),
    ("CC(C)NC(=O)[C@H]1CCC[C@H]1Nc1nc(Nc2ccc(CN(C)C)cc2)ncc1Br.Cl", -0.42),
    ("Cc1c(CN2CCC3(CC2)CN(c2ncnc4sc(CC(F)(F)F)cc24)C3)ccc2c1cc(C#N)n2CC(N)=O", -0.4),
]

Exam item: Enter reported Growth Rate observed with Fibroblast for Cl.Cl.Fc1ccc([C@@H]2CCNC[C@H]2COc2ccc3c(c2)OCO3)cc1.Fc1ccc([C@@H]2CCNC[C@H]2COc2ccc3c(c2)OCO3)cc1.O [PAROXETINE HYDROCHLORIDE]
Marked response: -1

Exam item: Enter reported Growth Rate observed with Fibroblast for Cc1c(-c2c(F)cc(C(N)=O)c3[nH]c4c(c23)CC[C@H](C(C)(C)O)C4)cccc1-n1c(=O)c2cccc(F)c2n(C)c1=O
Marked response: 0.08

Exam item: Enter reported Growth Rate observed with Fibroblast for CN(C)C/C=C/C(=O)Nc1cc2c(Nc3ccc(F)c(Cl)c3)ncnc2cc1OC[C@@H]1CCCO1
Marked response: -0.37

Exam item: Enter reported Growth Rate observed with Fibroblast for Cl.Cl.N=C(N)NCCC[C@H](NC(=O)CC1(CC(=O)N2CCN(C3c4ccccc4NC(=O)c4ccccc43)CC2)CCCC1)C(=O)NCCn1c(=O)n(-c2ccccc2)n(-c2ccccc2)c1=O (stereo partly drawn)
Marked response: 0.91

Exam item: Enter reported Growth Rate observed with Fibroblast for FC(F)(F)Oc1ccc(-c2ccc3nnc(C(F)(F)F)n3c2)cc1
Marked response: -1

Exam item: Enter reported Growth Rate observed with Fibroblast for COc1c(OCCCN2CCOCC2)ccc2c1N=C(NC(=O)c1cnc(N)nc1)N1CCN=C21
Marked response: 0.1

Exam item: Enter reported Growth Rate observed with Fibroblast for CN(C)[C@H]1CC[C@H](Nc2ncc3ncnc(Nc4ccc(F)c(Cl)c4)c3n2)CC1
Marked response: 0.23

Exam item: Enter reported Growth Rate observed with Fibroblast for Cl.Cl.O=C1c2ccccc2C(Cc2ccncc2)(Cc2ccncc2)c2ccccc21
Marked response: -1

Exam item: Enter reported Growth Rate observed with Fibroblast for NS(=O)(=O)c1cncc(-c2nc(NCc3ccccn3)c3c(-c4ccccc4)cccc3n2)c1
Marked response: -1

Exam item: Enter reported Growth Rate observed with Fibroblast for COc1cc2ncnc(Nc3ccc(F)c(Cl)c3)c2cc1OCCN(C)C[C@H](C)O
Marked response: -0.2

Exam item: Enter reported Growth Rate observed with Fibroblast for Cc1ccc(C(=O)Nc2cc(N3CCN(C)CC3)cc(C(F)(F)F)c2)cc1-n1cc(-c2cnn(C)c2C)nn1.Cl
Marked response: 0.43

Exam item: Enter reported Growth Rate observed with Fibroblast for C[C@@]1(Cc2ccc(C#N)cc2)C(=O)N(c2cc(Cl)cc(Cl)c2)c2ncc(C(=O)NC3(c4nc(C5CCC5)no4)CC3)n21
Marked response: 0.61

Exam item: Enter reported Growth Rate observed with Fibroblast for Cn1c(Nc2c(Cl)cccc2Cl)nc2ccc3nc[nH]c(=O)c3c21
Marked response: 0.65

Exam item: Enter reported Growth Rate observed with Fibroblast for CCN(C)S(=O)(=O)Nc1cccc(-c2ccc3c(NC(=O)C4CC4)n[nH]c3c2)c1
Marked response: -0.17

Exam item: Enter reported Growth Rate observed with Fibroblast for CCc1cnn2c(NCc3ccc[n+]([O-])c3)cc(N3CCCCC3CCO)nc12 (stereo not drawn)
Marked response: 0.25

Exam item: Enter reported Growth Rate observed with Fibroblast for CN[C@@H](C)C(=O)N[C@H](C(=O)N1CCC[C@H]1C(=O)N[C@@H]1CCCc2ccccc21)C1CCCCC1.Cl
Marked response: 0.76

Exam item: Enter reported Growth Rate observed with Fibroblast for Cc1cccc(-c2nn(C(=S)Nc3ccccc3)cc2-c2ccnc3ccccc23)n1
Marked response: -1

Exam item: Enter reported Growth Rate observed with Fibroblast for NC(=O)c1ccc(-c2nc(-c3ccc4c(c3)OCCO4)c(-c3ccccn3)[nH]2)cc1
Marked response: 0.77

Exam item: Enter reported Growth Rate observed with Fibroblast for c1cc(-c2cnn3cc(-c4ccc(N5CCNCC5)cc4)cnc23)c2cccnc2c1
Marked response: -1

Exam item: Enter reported Growth Rate observed with Fibroblast for CN(C)C/C=C/C(=O)Nc1cccc(S(=O)(=O)N2CCC(NC(=O)c3n[nH]cc3NC(=O)c3c(Cl)cc(Cl)cc3Cl)CC2)c1
Marked response: 0.8

Exam item: Enter reported Growth Rate observed with Fibroblast for CCn1ccc(Nc2ncc3c(n2)-c2c(nn(C)c2-c2ccc(-c4cnn(C)c4)cc2Cl)CC3)n1
Marked response: 0.87
